Target: T1, soluble recombinant HLA-DR2 molecules (MHC class II HLA-DR2 protein) (human)
T1 construct: Soluble, empty protein from Drosophila S2 cells, captured on plates by antibody LB3.1; also called MHC class II DR2 protein; recombinant HLA-DR2 protein
Experiment: competition ELISA on soluble HLA-DR2; competitor biotinylated Cop 1 (1.5 µM)
ENDPOINT_NAME: IC50

// query Need IC50 of AAAEYAAYKAAAAAA [synthetic peptide #76] , thanks.
// result > 1000 µM

// query GET /values?readout=IC50&item= AKEAYAAAAAAAAAA [synthetic peptide #39]
// result > 1000 µM

// query Which IC50 is reported for this binder? AEAEYKAYAAAAAAA [synthetic peptide #66]
// result > 1000 µM

// query Endpoint output: IC50 of AAKKYEAYAAAAAAA [synthetic peptide #68] . Value?
// result > 1000 µM

// query IC50 for EKAKYEAYKAAAAAA [synthetic peptide #101] ?
// result < 1 µM

// query What value of measured IC50 is listed for ENPVVHYFKNIVTPR (Analog of MBP 85-99 with F to Y at the position of MBP residue 91) [synthetic peptide #107] ?
// result 40 µM

// query Give its IC50 value. Item: AKAEYAAYAAAAAAA [synthetic peptide #59]
// result > 1000 µM

Numbers sourced from patent US20060020109A1.
